experimental-target: Recombinant human IDO1 (rhIDO1) (Homo sapiens (Human), UniProt P14902)
Sequence (P14902 whole entry): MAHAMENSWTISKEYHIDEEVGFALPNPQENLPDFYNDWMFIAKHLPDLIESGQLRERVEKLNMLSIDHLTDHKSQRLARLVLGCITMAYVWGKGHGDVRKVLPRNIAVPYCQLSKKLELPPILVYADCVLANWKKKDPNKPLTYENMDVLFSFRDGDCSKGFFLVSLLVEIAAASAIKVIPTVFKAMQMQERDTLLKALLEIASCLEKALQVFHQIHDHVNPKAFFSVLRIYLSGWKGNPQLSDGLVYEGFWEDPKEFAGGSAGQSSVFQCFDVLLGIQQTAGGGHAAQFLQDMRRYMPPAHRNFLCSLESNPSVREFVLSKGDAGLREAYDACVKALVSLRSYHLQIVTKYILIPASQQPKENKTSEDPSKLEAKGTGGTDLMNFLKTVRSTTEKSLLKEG
assay-notes: Enzymatic assay for IDO1 activity
test-conditions: read-out: Isolated IDO1 Enayme Assay IC50
Property: IC50; scope: individual compounds

COc1ccc2c(N)noc2n1 [Compound 41, 6-Methoxyisoxazolo[5,4-b]pyridin-3-amine]; > 100 µM
Nc1noc2nc(-c3cccs3)ccc12; > 100 µM
Nc1noc2nc3c(cc12)CCCC3; > 100 µM

Bench note: what IC50 did Nc1noc2ncncc12 [Compound 12, Isoxazolo[5,4-d]pyrimidin-3-amine] show?
> 100 µM

---

experimental-target: human TDO (GL261 cells transfected to over-express full length human TDO) (Homo sapiens (Human), UniProt P48775)
Sequence (P48775 whole entry): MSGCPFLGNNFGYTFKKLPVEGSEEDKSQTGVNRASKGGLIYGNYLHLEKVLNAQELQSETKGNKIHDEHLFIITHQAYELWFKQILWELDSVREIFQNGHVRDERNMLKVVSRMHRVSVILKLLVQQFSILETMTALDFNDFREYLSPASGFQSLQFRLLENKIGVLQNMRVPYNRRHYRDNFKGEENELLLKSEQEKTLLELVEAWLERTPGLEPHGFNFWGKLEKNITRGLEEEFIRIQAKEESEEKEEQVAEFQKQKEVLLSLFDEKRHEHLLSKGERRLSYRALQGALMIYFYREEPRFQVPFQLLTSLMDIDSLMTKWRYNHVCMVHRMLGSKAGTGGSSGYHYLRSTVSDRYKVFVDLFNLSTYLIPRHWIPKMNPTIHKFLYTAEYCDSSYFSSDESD
assay-notes: Cell-based assay for TDO inhibition
test-conditions: 24 h; read-out: Cellular TDO IC50
pIC50: −log10 of the molar value.
recorded-endpoint: pIC50

Worked set:
Nc1noc2ncc([N+](=O)[O-])cc12 [Compound 49, 5-Nitroisoxazolo[5,4-b]pyridin-3-amine]; > 6.00
Nc1noc2ncc(F)cc12 [Compound 14, 5-Fluoroisoxazolo[5,4-b]pyridin-3-amine]; 5.00 to 6.00

Next compound, please.
Bench note: what pIC50 did Nc1noc2nc(C(F)(F)F)ccc12 [Compound 47] show?
5.00 to 6.00
